Assay: Cycloheximide Counterscreen for Small Molecule Inhibitors of Shiga Toxin; note: read at 38.3 µM for the half of the compounds with a filed dose
Details: cell reporter, cycloheximide protein synthesis inhibition counterscreen
The whole screen tested about 300,000 compounds, of which about 37,000 (12%) were called active. Cut-off read from the data, not from the text of the source: active = max response mostly above about 13% (no sharp cut-off); inactive = mostly below about 14%. Many of the other results were omitted from the sample, so actives are more common in it than they were.
Classes used: YES for active, NO for inactive

compound	class
C[C@H]1CCC[C@@]2(C)CCCC[C@]12O	NO
C(=N/Nc1cc(N2CCOCC2)nc(N2CCOCC2)n1)/c1ccccc1	NO
O=C(CCN1C(=O)[C@H]2CC=CC[C@H]2C1=O)NCc1nc(-c2ccccc2)no1	NO
O=C(c1cccs1)N1CCC(c2nc3ccccc3s2)CC1	NO
N#CC(=C1SC=CS1)c1nc(-c2ccccc2)cs1	YES
O=S(=O)(c1ccccc1)c1nc(Cc2ccccc2)oc1N1CCOCC1	NO
CC[C@H](C)[C@H](NC(=O)[C@H](Cc1cnc[nH]1)NC(=O)[C@@H](N)CCC(=O)O)C(=O)N1CCC[C@H]1C(=O)N[C@@H](C)C(=O)O	NO
CN(C(=O)COC(=O)c1nc(Cl)ccc1Cl)C1CCS(=O)(=O)C1 (configuration not stated)	NO
CCOc1ccc(CN2CCN(CCCc3ccccc3)C(CCO)C2)cc1 (configuration not stated)	NO
CCN(CC)CCn1cnc2c1c(=O)[nH]c(=O)n2Cc1ccccc1	NO
N#C/C(=C1\CCCN1)c1nc(-c2ccccc2)cs1	YES
CC(C)=CCN1CCN(Cc2ccc(Oc3ncccn3)cc2)CC1CCO (configuration not stated)	NO
O=c1oc(-c2ccccc2NS(=O)(=O)c2ccc(Cl)cc2)nc2ccccc12	NO
CCOc1cc(N2CCOCC2)c(OCC)cc1NC(=O)c1cc(C)nc2ccccc12	NO
N#CC(=C1CCCC1)c1nc(-c2ccc(Cl)cc2)cs1	NO
Cc1cccc(N(Cc2ccccc2)C(=O)c2ccccc2F)c1	NO
Cc1ccc(C)c(N2C(=O)CS/C2=N\NC(=O)c2ccccc2Cl)c1	NO
COc1cc(C)c(C)cc1S(=O)(=O)N1CCCc2ccccc21	YES
Cn1c(/C(C#N)=C2/CCCCCN2)nc2ccccc21	NO
Cc1cc(N/N=C\c2ccc(Br)cc2)nc(-n2nc(C)cc2C)n1	NO
FC(F)(F)c1cc(-c2ccco2)nc(NCc2ccc(Cl)cc2)n1	NO
Cc1cccc(C)c1NC(=O)C1CCCN1C(=O)OC(C)(C)C (configuration not stated)	NO
